Data provenance is ChEMBL document CHEMBL3217471.

IC50 overview
Molecular target: Geranylgeranyl transferase type I (Homo sapiens, UniProt P49354+P53609)
Assay: Inhibition of human GGTase1 in human Burkitt lymphoma (Daudi) cell supernatant using [3H]geranylgeranyl

| SUBSTANCE_SMILES | VALUE_QUALIFIER | IC50, nM |
| --- | --- | --- |
| NC(=O)N1CCC(CC(=O)N2CCC([C@H]3c4ncc(Br)cc4CCc4cc(Cl)cc(Br)c43)CC2)CC1 | > | 50000 |
| Cn1cncc1[C@@](N)(c1ccc(Cl)cc1)c1ccc2c(c1)c(-c1cccc(Cl)c1)cc(=O)n2C | > | 50000 |
| COc1ccc(S(=O)(=O)N2Cc3cc(C#N)ccc3N(Cc3cncn3C)C[C@H]2Cc2ccccc2)cc1 | > | 99500 |
| Cc1ccccc1-c1cc(NCc2c[nH]cn2)ccc1C(=O)N[C@@H](CC(C)C)C(=O)O | = | 21 |
| COc1ccc(S(=O)(=O)N2Cc3cc(-c4ccc(C#N)o4)ccc3N(Cc3cncn3C)C[C@H]2Cc2ccc(OC(=O)NCc3ccccc3)cc2)cc1 | > | 99500 |
| CSCC[C@H](NC(=O)c1ccc(NC[C@@H](N)CS)cc1-c1ccccc1)C(=O)O | = | 50 |
| CC(C)C[C@H](NC(=O)c1ccc(NC[C@@H](N)CS)cc1-c1ccccc1)C(=O)O | = | 5 |
| Cc1ccccc1S(=O)(=O)N1[C@H](C(C)(C)C)C[C@@H](C(=O)O)[C@@H]1c1ccc(Cl)cc1 | = | 466 |

====

Test: Inhibition of rat RabGGTase using [3H]GGPP by scintillation counting
Doc: threshold 1000 nM (exclusive). Items with IC50 beneath it return yes (1); others return no (0).

| MOLECULE | GROUP |
| --- | --- |
| O=C(O)C(O)(Cc1cnc2ccccn12)P(=O)(O)O (single isomer, unassigned; (+)) | no (0) |
| O=C(O)C(Cl)(Cc1cccnc1)P(=O)(O)O (stereo not given) | no (0) |
| O=C(O)C(O)(Cc1cccnc1)P(=O)(O)O (stereo not given) | no (0) |
| COc1ccc(S(=O)(=O)N2Cc3cc(-c4ccc(C#N)o4)ccc3N(Cc3cncn3C)C[C@H]2Cc2ccc(OC(=O)NCc3ccccc3)cc2)cc1 | yes (1) |
| COc1ccc(S(=O)(=O)N2Cc3cc(C#N)ccc3N(Cc3cncn3C)C[C@H]2Cc2ccccc2)cc1 | yes (1) |

====

Target: Protein farnesyltransferase (Homo sapiens, UniProt P49354+P49356)
Assay: Binding affinity to FTase (unknown origin)

| MOLECULE | Kd |
| --- | --- |
| CC(C)=CCC/C(C)=C/CC/C(C)=C/CO[P@@](=O)(O)OP(=O)(O)O [FARNESYL DIPHOSPHATE] | 2 nM |

====

Assay: Inhibition of human RabGGTase using [3H]GGPP by scintillation counting
pIC50: −log10 of the molar value.
RECORDED_METRIC: pIC50

| MOLECULE | MEASURED_RESULT |
| --- | --- |
| O=C(O)C(O)(Cc1cccnc1)P(=O)(O)O (stereo unspecified) | 3.22 |

====

Molecular target: Geranylgeranyl transferase type I (Homo sapiens, UniProt P49354+P53609)
Experiment: Inhibition of human GGTase1 in human Burkitt lymphoma (Daudi) cell supernatant using [3H]geranylgeranyl
IC50 overview

| COMPOUND | TEST_TARGET | UNIT_TEXT | VALUE_QUALIFIER | IC50 |
| --- | --- | --- | --- | --- |
| CC(C)[C@@H](CO[C@@H](Cc1ccccc1)C(=O)N[C@@H](CCS(C)(=O)=O)C(=O)O)NC[C@@H](N)CS | Geranylgeranyl transferase type I (Homo sapiens, UniProt P49354+P53609) | nM | = | 50 |
| N#Cc1ccc2c(c1)CN(S(=O)(=O)c1cccs1)[C@@H](Cc1ccccc1)CN2Cc1ncc[nH]1 | Geranylgeranyl transferase type I (Homo sapiens, UniProt P49354+P53609) | nM | > | 1000 |
| Cc1nc[nH]c1CN1CCN(C(=O)N[C@@H](CC(C)C)C(=O)O)[C@@H](Cc2ccccc2)C1=O [GGTI-2418] | Geranylgeranyl transferase type I (Homo sapiens, UniProt P49354+P53609) | nM | = | 9.5 |

====

Biological target: Protein farnesyltransferase (Homo sapiens, UniProt P49354+P49356)
Assay: Inhibition of human recombinant FTase using [3H]farnesyldiphosphate

| SUBSTANCE_SMILES | UNIT_TEXT | VALUE_QUALIFIER | IC50 |
| --- | --- | --- | --- |
| CC(C)[C@@H](CO[C@@H](Cc1ccccc1)C(=O)N[C@@H](CCS(C)(=O)=O)C(=O)O)NC[C@@H](N)CS | nM | = | 1.8 |
| N#Cc1ccc2c(c1)CN(S(=O)(=O)c1cccs1)[C@@H](Cc1ccccc1)CN2Cc1ncc[nH]1 | nM | = | 1.35 |
| N#Cc1ccc2cc1Oc1ccc3c(c1)[C@@H](CCC3)N1CC[C@@H](NCc3cncn3C2)C1=O | nM | = | 0.02 |
| O=C(NCCCn1ccnc1)[C@H]1CN([C@@H]2c3ccc(Cl)cc3CCc3cc(Br)cnc32)CCN1C(=O)NC1CCCCC1 | nM | = | 0.4 |
| CC(C)C[C@H](NC(=O)c1ccc(NC[C@@H](N)CS)cc1-c1ccccc1)C(=O)O | nM | = | 25 |
| Cc1ccccc1-c1cc(NCc2c[nH]cn2)ccc1C(=O)N[C@@H](CC(C)C)C(=O)O | nM | = | 5600 |
| COc1ccc(S(=O)(=O)N2Cc3cc(-c4ccc(C#N)o4)ccc3N(Cc3cncn3C)C[C@H]2Cc2ccc(OC(=O)NCc3ccccc3)cc2)cc1 | nM | > | 9700 |

====

Biological target: Protein farnesyltransferase (Homo sapiens, UniProt P49354+P49356)
Test: Inhibition of human recombinant FTase using [3H]farnesyldiphosphate
pIC50: −log10 of the molar value.
pIC50 overview

| SUBSTANCE_SMILES | VALUE_QUALIFIER | pIC50 |
| --- | --- | --- |
| COc1ccc(S(=O)(=O)N2Cc3cc(C#N)ccc3N(Cc3cncn3C)C[C@H]2Cc2ccccc2)cc1 | = | 8.22 |
| Cc1nc[nH]c1CN1CCN(C(=O)N[C@@H](CC(C)C)C(=O)O)[C@@H](Cc2ccccc2)C1=O | = | 4.28 |
| Cc1ccccc1S(=O)(=O)N1[C@H](C(C)(C)C)C[C@@H](C(=O)O)[C@@H]1c1ccc(Cl)cc1 | < | 4.30 |
| Cn1cncc1CN(Cc1cccc(C#N)c1)c1ccc(C#N)c(-c2cccc3ccccc23)c1 | = | 9.41 |
